biological target: T1, Recombinant Human FGFR2 alpha (IIIc) Fc Chimera Protein, CF (R&D systems, 712-FR-050) (human, UniProt P21802 22-377); experiment: ELISA on plate-bound FGFR2-Fc
T1 construct: bought; not shown: Fc part of the chimera
T1 sequence (P21802 22-377, change not shown): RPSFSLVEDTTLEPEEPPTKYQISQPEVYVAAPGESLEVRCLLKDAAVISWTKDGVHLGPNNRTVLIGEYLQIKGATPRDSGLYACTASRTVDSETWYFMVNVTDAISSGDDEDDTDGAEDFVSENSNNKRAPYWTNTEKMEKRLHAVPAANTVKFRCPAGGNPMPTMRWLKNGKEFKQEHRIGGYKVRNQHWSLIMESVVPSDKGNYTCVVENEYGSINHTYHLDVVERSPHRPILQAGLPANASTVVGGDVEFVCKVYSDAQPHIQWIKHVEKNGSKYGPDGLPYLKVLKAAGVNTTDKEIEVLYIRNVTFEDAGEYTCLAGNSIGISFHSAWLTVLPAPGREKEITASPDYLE
Bridge positions count the residues as written; N and C are the ends. Ends that are not written are not given here. COCH2 = acetyl group that carries the bridge
endpoint_name: ELISA luminescence signal at 10 nmol/L peptide, relative to SEQ ID NO: 47 (=1)

{"binder": "KCAPQNFINPVQWRYFQHYKN (thioether ring (C)-(K(acetyl))) [cyclic peptide SEQ ID NO: 70]", "reported_result": "0.5 to 0.7 ratio"}
{"binder": "QCWYIQQYIWERYFLWHNK(COCH2)E (thioether 2-19) [cyclic peptide SEQ ID NO: 120]", "reported_result": "0.1 to 0.5 ratio"}
{"binder": "QCPQNFINPVQYRYFQHYK(COCH2)N (thioether 2-19) [cyclic peptide SEQ ID NO: 104]", "reported_result": "0.5 to 0.7 ratio"}
{"binder": "YCEENYLDPEQYQIFIYFK(COCH2)Y (thioether 2-19 (inferred)) [cyclic peptide SEQ ID NO: 271]", "reported_result": "0.1 to 0.5 ratio"}
{"binder": "YCEENYADPEQYQYFIYFK(COCH2)Y (thioether 2-19 (inferred)) [cyclic peptide SEQ ID NO: 327]", "reported_result": "0.1 to 0.5 ratio"}
{"binder": "RCHHNFHHARQHRFFHHYK(COCH2)R (thioether 2-19) [cyclic peptide SEQ ID NO: 387]", "reported_result": "0.1 to 0.5 ratio"}

Where do these numbers come from? They come from patent US20260008815A1.
